These entries and their values trace back to ChEMBL document CHEMBL4004822.

biological target: NAD-dependent protein deacetylase sirtuin-2 (Homo sapiens) (UniProt Q8IXJ6); test: Inhibition of recombinant human C-terminal His-tagged SIRT2 (50 to 389 end residues) expressed in Escherichia coli at 10 uM using p53 derived (379 to 382 residues) fluorogenic peptide substrate RHKK(Ac)-AMC preincubated for 10 mins followed by substrate addition in presence of NAD+ by fluorescence assay relative to control
Measurement Name: inhibition (%)
Only the number, expressed in %, is required.

Entry COc1cccc(Cn2cnc3sc4c(c3c2=O)CCC(NCc2cncnc2)C4)c1 (stereo not given) , inhibition reported as 18

Entry O=c1c2c3c(sc2ncn1Cc1cccc2ccccc12)CC(NCc1ccc(Cl)cc1)CC3 (stereo not given) — recorded inhibition = 64

Reported inhibition for COCCNC1CCc2c(sc3ncn(Cc4ccc5ccccc5c4)c(=O)c23)C1 (stereo not given) was 45

Given item `COc1ccc2ccccc2c1Cn1cnc2sc(CCNC3CCOCC3)c(C)c2c1=O` , the value recorded as its inhibition is 68

Briefly, inhibition measured for O=c1c2c3c(sc2ncn1Cc1cccc2ccccc12)CC(NC1CCCC1)CC3 (stereo not given) : 61

Looking up COc1ccc2ccccc2c1Cn1cnc2sc3c(c2c1=O)CCC(NCCN1CCOCC1)C3 (stereo not given) , I found its inhibition recorded as 70

The compound identified as O=c1c2c3c(sc2ncn1Cc1cccc2cccnc12)CC(NCCN1CCOCC1)CC3 (stereo not given) registered its inhibition at 53

// sample O=c1c2c3c(sc2ncn1Cc1cccc(-c2ccccc2)c1)CC(Nc1ccc2c(c1)OCO2)CC3 (stereo not given) , its inhibition was 33

The compound identified as COc1cccc(Cn2cnc3sc4c(c3c2=O)CCC(NCCc2cccnc2)C4)c1 (stereo not given) registered its inhibition at 40

// recorded inhibition for COc1ccc2ccccc2c1Cn1cnc2sc3c(c2c1=O)CCC(NC1CCCC1)C3 (stereo not given) : 99

====

Target: UniProt Q8IXJ6
Sequence (whole entry): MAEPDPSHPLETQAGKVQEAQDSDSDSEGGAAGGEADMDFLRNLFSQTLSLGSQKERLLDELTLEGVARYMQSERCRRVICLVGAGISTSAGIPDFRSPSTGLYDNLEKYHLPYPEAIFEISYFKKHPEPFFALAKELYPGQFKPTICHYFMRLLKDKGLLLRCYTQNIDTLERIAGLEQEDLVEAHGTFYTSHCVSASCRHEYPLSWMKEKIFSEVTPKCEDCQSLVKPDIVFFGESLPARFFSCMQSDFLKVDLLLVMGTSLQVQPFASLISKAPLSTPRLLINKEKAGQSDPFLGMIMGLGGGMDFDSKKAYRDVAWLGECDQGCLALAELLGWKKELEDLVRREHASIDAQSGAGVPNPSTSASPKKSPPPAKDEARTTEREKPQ
Test: Inhibition of recombinant human C-terminal His-tagged SIRT2 (50 to 389 end residues) expressed in Escherichia coli at 10 uM using p53 derived (379 to 382 residues) fluorogenic peptide substrate RHKK(Ac)-AMC preincubated for 10 mins followed by substrate addition in presence of NAD+ by fluorescence assay relative to control
What inhibition was measured for each of the following?
Kindly write the number and append the unit.

Per the record, O=c1c2c3c(sc2ncn1Cc1cccc(-c2ccccc2)c1)CC(NCc1ccccc1Cl)CC3 (stereo not drawn) has inhibition of 39%

Value of measured inhibition for the entry O=c1c2c3c(sc2ncn1Cc1ccccc1)CC(NCc1cncnc1)CC3 (stereo not drawn) : 18%

Lab note: measured inhibition of O=c1c2c3c(sc2ncn1Cc1ccc2ccccc2c1)CC(NCCc1cccnc1)CC3 (stereo not drawn) was 77%

====

Target: NAD-dependent protein deacetylase sirtuin-2 (Homo sapiens)
Sequence (whole entry): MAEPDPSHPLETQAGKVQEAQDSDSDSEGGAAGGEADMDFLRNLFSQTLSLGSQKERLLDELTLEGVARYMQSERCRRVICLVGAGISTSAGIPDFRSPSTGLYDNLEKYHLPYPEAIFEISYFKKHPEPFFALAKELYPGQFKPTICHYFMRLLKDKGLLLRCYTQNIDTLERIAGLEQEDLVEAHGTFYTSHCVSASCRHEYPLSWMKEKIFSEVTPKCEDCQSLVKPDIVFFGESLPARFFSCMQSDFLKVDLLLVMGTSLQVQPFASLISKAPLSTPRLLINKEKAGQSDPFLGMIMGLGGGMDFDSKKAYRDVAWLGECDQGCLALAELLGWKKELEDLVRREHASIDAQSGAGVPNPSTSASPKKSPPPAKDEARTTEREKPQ
Experiment: Inhibition of recombinant human C-terminal His-tagged SIRT2 (50 to 389 end residues) expressed in Escherichia coli at 10 uM using p53 derived (379 to 382 residues) fluorogenic peptide substrate RHKK(Ac)-AMC preincubated for 10 mins followed by substrate addition in presence of NAD+ by fluorescence assay relative to control
Classification field: enter criterion met for inhibition values not below 60%, criterion not met for values below it.

# input inhibition >= 60% for O=c1c2c3c(sc2ncn1Cc1cccc2cccnc12)CC(NCC1CCCO1)CC3 (stereo unspecified) ?
# output criterion not met

# input Check this compound for inhibition at or above 60%: `COc1ccc2ccccc2c1Cn1cnc2sc(CCN)c(C)c2c1=O`
# output criterion not met

# input API: above_or_equal(metric=inhibition, cutoff=60%) for item Cc1ccc(NC2CCc3c(sc4ncn(Cc5cccc6ccccc56)c(=O)c34)C2)cc1 (stereo unspecified)
# output criterion not met

# input I'd appreciate it if you could say whether COc1ccccc1CNC1CCc2c(sc3ncn(Cc4c(OC)ccc5ccccc45)c(=O)c23)C1 (stereo unspecified) has inhibition at least equal to 60%.
# output criterion met

# input Has COc1cccc(Cn2cnc3sc4c(c3c2=O)CCC(NCc2ccc(OC)nc2)C4)c1 (stereo unspecified) a recorded inhibition greater than or equal to 60%?
# output criterion not met

# input API: above_or_equal(metric=inhibition, cutoff=60%) for item COc1ccccc1Cn1cnc2sc3c(c2c1=O)CCC(NCc1ccccn1)C3 (stereo unspecified)
# output criterion not met

# input I'd appreciate it if you could say whether COc1cccc(CNC2CCc3c(sc4ncn(Cc5ccccc5)c(=O)c34)C2)c1 (stereo unspecified) has inhibition at least equal to 60%.
# output criterion not met

# input hey, is inhibition for this one >= 60%? COc1ccccc1CCNC1CCc2c(sc3ncn(Cc4ccc5ccccc5c4)c(=O)c23)C1 (stereo unspecified)
# output criterion met

# input Identify whether the reported inhibition of the following compound is 60% or greater: COc1ccc2ccccc2c1Cn1cnc2sc3c(c2c1=O)CCC(NCCc1cccnc1)C3 (stereo unspecified)
# output criterion met

# input Does the reported inhibition for O=c1c2c3c(sc2ncn1Cc1cccc2ccccc12)CC(NCC1CCOC1)CC3 (stereo unspecified) fall at or above the 60% mark?
# output criterion met

# input Entry COc1ccc(Cn2cnc3sc4c(c3c2=O)CCC(NCCNC(C)=O)C4)c2ccccc12 (stereo unspecified) : is its inhibition no less than 60%?
# output criterion not met

# input Say whether O=c1c2c3c(sc2ncn1Cc1ccccc1)CC(NCCc1ccncc1)CC3 (stereo unspecified) shows inhibition of 60% or more.
# output criterion not met

# input Could you please find out whether COCCNC1CCc2c(sc3ncn(Cc4cccc5ccccc45)c(=O)c23)C1 (stereo unspecified) has inhibition that meets 60% or exceeds it?
# output criterion not met

# input Could you verify whether the entry COc1ccccc1CNC1CCc2c(sc3ncn(Cc4ccccc4)c(=O)c23)C1 (stereo unspecified) shows inhibition of no less than 60%?
# output criterion not met

# input Threshold query (inhibition >= 60%) on COc1ccc2ccccc2c1Cn1cnc2sc3c(c2c1=O)CCC(NCc1c(C)nn(C)c1C)C3 (stereo unspecified)
# output criterion met

# input Could you verify whether the entry O=c1c2c3c(sc2ncn1Cc1cccc2cccnc12)CC(NCc1ccc(Cl)cc1)CC3 (stereo unspecified) shows inhibition of no less than 60%?
# output criterion met

# input hey, is inhibition for this one >= 60%? O=c1c2c3c(sc2ncn1Cc1cccc2ccccc12)CC(NCc1cncnc1)CC3 (stereo unspecified)
# output criterion met

# input Does the reported inhibition for COc1ccccc1CCNC1CCc2c(sc3ncn(Cc4cccc(-c5ccccc5)c4)c(=O)c23)C1 (stereo unspecified) fall at or above the 60% mark?
# output criterion met

# input Determine whether this compound has inhibition no lower than 60%: O=c1c2c3c(sc2ncn1Cc1cccc2cccnc12)CC(NCc1ccncc1)CC3 (stereo unspecified)
# output criterion met

# input Decide: is the reported value of inhibition for O=c1c2c3c(sc2ncn1Cc1cccc2cccnc12)CC(NCc1ccccc1Cl)CC3 (stereo unspecified) equal to or greater than 60%?
# output criterion met

# input Is it the case that O=c1c2c3c(sc2ncn1Cc1cccc2ccccc12)CC(NCc1cccs1)CC3 (stereo unspecified) has inhibition reaching or exceeding 60%?
# output criterion not met

# input Could you please find out whether COc1ccc2ccccc2c1Cn1cnc2sc3c(c2c1=O)CCC(NCc1cccc(F)c1)C3 (stereo unspecified) has inhibition that meets 60% or exceeds it?
# output criterion met

# input Can COc1ccc(NC2CCc3c(sc4ncn(Cc5cccc(-c6ccccc6)c5)c(=O)c34)C2)cc1 (stereo unspecified) be said to have inhibition at or above 60%?
# output criterion not met

# input # bool: inhibition of CC(=O)NCCNC1CCc2c(sc3ncn(Cc4cccc(-c5ccccc5)c4)c(=O)c23)C1 (stereo unspecified) >= 60%
# output criterion met

# input Identify whether the reported inhibition of the following compound is 60% or greater: COc1ccccc1NC1CCc2c(sc3ncn(Cc4cccc5cccnc45)c(=O)c23)C1 (stereo unspecified)
# output criterion met

# input hey, is inhibition for this one >= 60%? COc1ccc2ccccc2c1Cn1cnc2sc(CCNCC3CCOC3)c(C)c2c1=O (stereo unspecified)
# output criterion met
